- system-name: human FPR1 (Homo sapiens (Human), UniProt P21462)
- Sequence (P21462 whole entry): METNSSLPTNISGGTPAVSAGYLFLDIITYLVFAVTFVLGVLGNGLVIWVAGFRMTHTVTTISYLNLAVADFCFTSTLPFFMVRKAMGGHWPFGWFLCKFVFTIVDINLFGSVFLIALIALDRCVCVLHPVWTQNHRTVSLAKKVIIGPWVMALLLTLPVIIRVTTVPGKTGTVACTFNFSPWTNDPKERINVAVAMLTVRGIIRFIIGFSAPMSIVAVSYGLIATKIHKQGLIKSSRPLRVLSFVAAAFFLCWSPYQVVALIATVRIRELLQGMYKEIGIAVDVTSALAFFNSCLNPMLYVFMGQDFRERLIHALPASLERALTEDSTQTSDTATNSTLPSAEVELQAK
- experimental-protocol: FPR1 cyclic adenosine monophosphate (cAMP) assay
- assay-conditions: CHO cells overexpressing human FPR1; forskolin 10 µM; inhibition of cAMP production; read-out: hFPR1 cAMP EC50
Each record is given fulfilled if its reported EC50 is strictly below 0.1 µM. Records at or above 0.1 µM are given not fulfilled.

Answered cases to consult:
[[record]]
compound = "COc1ccc([C@@H]2CN(c3cccn(CC(OC)C(F)(F)F)c3=O)C(=O)[C@H]2NC(=O)c2ccc(Cl)cc2)cc1 (stereo partly drawn)"
system_name = "human FPR1 (Homo sapiens (Human), UniProt P21462)"
assigned_class = "fulfilled"

[[record]]
compound = "COc1cc(F)c([C@@H]2CN(c3nc(N4CC5(COC5)C4)ccc3F)C(=O)[C@H]2NC(=O)c2ccc(OC(F)F)cc2)c(F)c1"
system_name = "human FPR1 (Homo sapiens (Human), UniProt P21462)"
assigned_class = "not fulfilled"

[[record]]
compound = "COc1cc(F)c([C@@H]2CN(c3c(C)ccn(CC(C)O)c3=O)C(=O)[C@H]2NC(=O)c2ccc(Cl)cc2)c(F)c1 (stereo partly drawn) [Example 362]"
system_name = "human FPR1 (Homo sapiens (Human), UniProt P21462)"
assigned_class = "fulfilled"

[[record]]
compound = "COc1cc(F)c([C@@H]2CN(c3c(C)ccn(C(CO)C(F)(F)F)c3=O)C(=O)[C@H]2NC(=O)c2ccc(OC(F)F)cc2)c(F)c1 (stereo partly drawn) [Example 707]"
system_name = "human FPR1 (Homo sapiens (Human), UniProt P21462)"
assigned_class = "not fulfilled"

[[record]]
compound = "COCC(C(=O)N1CCOCC1)n1cccc(N2C[C@@H](c3ccc(OC)cc3)[C@H](NC(=O)c3ccc(OC(F)F)cc3)C2=O)c1=O (stereo partly drawn)"
system_name = "human FPR1 (Homo sapiens (Human), UniProt P21462)"
assigned_class = "fulfilled"


Determine whether this compound shows EC50 lower than 0.1 µM (ties excluded): COc1cc(N2C[C@@H](c3c(F)cc(OC)cc3F)[C@H](NC(=O)c3ccc(Cl)cc3)C2=O)nc(N2C[C@@H]3C[C@H]2CN3C)c1
not fulfilled

* * *

This section presents compounds with their documented pEC50 values.
- system-name: human FPR1 (Homo sapiens (Human))
- experimental-protocol: FPR1 cyclic adenosine monophosphate (cAMP) assay
- assay-conditions: CHO cells overexpressing human FPR1; forskolin 10 µM; inhibition of cAMP production; read-out: hFPR1 cAMP EC50
Schema: pEC50 number; meaning minus log10 of the concentration expressed in molar units.

Recorded pEC50 for COc1ccc([C@@H]2CN(c3c(C)ccn(C4COC4)c3=O)C(=O)[C@H]2NC(=O)c2ccc(OC(F)(F)F)cc2)cc1 with human FPR1 (Homo sapiens (Human)), please?
8.22

Recorded pEC50 for COc1cc(F)c([C@@H]2CN(c3c(C)ccn(C4CCS(=O)(=O)CC4)c3=O)C(=O)[C@H]2NC(=O)c2ccc(OC(F)F)cc2)c(F)c1 with human FPR1 (Homo sapiens (Human)), please?
7.89

Recorded pEC50 for COc1cc(F)c([C@@H]2CN(c3nccc(N4CCN(S(C)(=O)=O)CC4)c3C(F)(F)F)C(=O)[C@H]2NC(=O)c2ccc(Cl)cc2)c(F)c1 with human FPR1 (Homo sapiens (Human)), please?
5.72

Recorded pEC50 for COc1cc(F)c([C@@H]2CN(c3cncnc3OC3CCOCC3)C(=O)[C@H]2NC(=O)c2ccc(Cl)cc2)c(F)c1 with human FPR1 (Homo sapiens (Human)), please?
5.72

Recorded pEC50 for COc1cc(F)c([C@@H]2CN(c3nccc(N4CCN(C)CC4)c3C#N)C(=O)[C@H]2NC(=O)c2ccc(Cl)cc2)c(F)c1 with human FPR1 (Homo sapiens (Human)), please?
5.34

Recorded pEC50 for COc1cc(N2C[C@@H](c3c(F)cc(OC)cc3F)[C@H](NC(=O)c3ccc(OC(F)F)cc3)C2=O)nc(C(C)(C)O)c1 with human FPR1 (Homo sapiens (Human)), please?
5.92

Recorded pEC50 for COc1cc(F)c([C@@H]2CN(c3c(Cl)ccn(C)c3=O)C(=O)[C@H]2NC(=O)c2ccc(Cl)cc2)c(F)c1 with human FPR1 (Homo sapiens (Human)), please?
6.80

Recorded pEC50 for COc1cc(F)c([C@@H]2CN(c3cccn(CCO)c3=O)C(=O)[C@H]2NC(=O)c2ccc(OC(F)F)cc2)c(F)c1 with human FPR1 (Homo sapiens (Human)), please?
6.85

Recorded pEC50 for COc1cc(F)c([C@@H]2CN(c3c(C)ccn(CC(O)C(F)(F)F)c3=O)C(=O)[C@H]2NC(=O)c2ccc(Cl)cc2)c(F)c1 (stereo partly shown) with human FPR1 (Homo sapiens (Human)), please?
7.80

Recorded pEC50 for O=C(N[C@@H]1C(=O)N(c2cccn(CC(O)C(F)(F)F)c2=O)C[C@H]1c1ccc(Cl)cc1)c1ccc(OC(F)F)cc1 (stereo partly shown) with human FPR1 (Homo sapiens (Human)), please?
7.07

Recorded pEC50 for COc1cc(F)c([C@@H]2CN(c3nc(NC(C)=O)ccc3F)C(=O)[C@H]2NC(=O)c2ccc(OC(F)F)cc2)c(F)c1 with human FPR1 (Homo sapiens (Human)), please?
6.82

Recorded pEC50 for O=C(N[C@@H]1C(=O)N(c2cccn(CC(O)C(F)(F)F)c2=O)C[C@H]1c1ccc(Cl)cc1)c1ccc(OC(F)(F)F)cc1 (stereo partly shown) [Example 608] with human FPR1 (Homo sapiens (Human)), please?
8.38

Recorded pEC50 for COc1cc(F)c([C@@H]2CN(c3ccc(CO)n(C)c3=O)C(=O)[C@H]2NC(=O)c2ccc(OC(F)(F)F)cc2)c(F)c1 with human FPR1 (Homo sapiens (Human)), please?
6.62

This collection of values is drawn from patent US20230348426A1.
